# Tested on: 188146-221-R-J1-PDC complex spheroid viability;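 also: spheroids exposed to compounds for seven days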
# ASSAY REMARKS: Anticancer human tumor 188146-221-R-J1-PDC patient-derived colon adenocarcinoma cell line growth inhibition [POLQ]; active = viability on the fitted dose curve at most 10% of control; inactive = the rest
# TEST PARAMETERS: second compound 0.0316 µM; first compound 3.16 µM
Output constraint: value belongs to active, inactive

MOLECULE: CC1COCCN1c1cc(-c2ccnn2C)c2ccnc(-c3ccn[nH]3)c2n1 (centres undefined) + Nc1ccc(C#CCN(C(=O)Cc2ncc(C(F)(F)F)cc2C(F)(F)F)c2ccc(F)cc2)nn1
TESTED ON: 188146-221-R-J1-PDC complex spheroid viability;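 also: spheroids exposed to compounds for seven days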
ASSIGNED LABEL: inactive

Which outcome was entered for the molecule CC1COCCN1c1cc(C2(S(C)(=N)=O)CC2)nc(-c2ccnc3[nH]ccc23)n1 (centres undefined) + COC1C(OC(N)=O)C(O)C(Oc2ccc3c(O)c(NC(=O)c4ccc(O)c(CC=C(C)C)c4)c(=O)oc3c2C)OC1(C)C in this test?
inactive

This collection of values is drawn from PubChem BioAssay AID1963851.
